Molecular target: XLG2 (Arabidopsis thaliana)
Sequence (C6KIE6 435-861): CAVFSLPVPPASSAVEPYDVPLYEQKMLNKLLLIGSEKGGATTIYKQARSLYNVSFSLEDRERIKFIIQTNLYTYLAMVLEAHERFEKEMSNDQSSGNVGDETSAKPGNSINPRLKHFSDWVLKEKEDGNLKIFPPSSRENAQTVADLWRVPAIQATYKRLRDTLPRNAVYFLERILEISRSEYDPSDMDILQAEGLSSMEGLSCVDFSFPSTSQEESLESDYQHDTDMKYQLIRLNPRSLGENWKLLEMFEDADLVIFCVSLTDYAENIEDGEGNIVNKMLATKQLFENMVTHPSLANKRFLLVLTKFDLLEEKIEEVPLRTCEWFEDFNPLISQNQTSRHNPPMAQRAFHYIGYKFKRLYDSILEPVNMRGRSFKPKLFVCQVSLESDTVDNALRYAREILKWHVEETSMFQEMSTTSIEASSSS
Assay: Microscale thermophoresis
Assay type: binding
Conditions: Kd, nucleotide binding to XLG2 in the presence of Ca2+, MST; Ca2+ instead of Mg2+
pKd: −log10 of the molar value.
Each record here notes measured pKd.

Query block: I would be grateful if you could share the reported pKd for Nc1nc2c(ncn2[C@@H]2O[C@H](COP(=O)(O)OP(=O)(O)OP(O)(O)=S)[C@@H](O)[C@H]2O)c(=O)[nH]1 .
Result block: ~3.73

// moving on: another record for pKd
Query block: I would be grateful if you could share the reported pKd for Nc1nc2c(ncn2[C@@H]2O[C@H](COP(=O)(O)OP(=O)(O)O)[C@@H](O)[C@H]2O)c(=O)[nH]1 [GDP, guanosine diphosphate] .
Result block: ~4.55

====

Molecular target: XLG2 (Arabidopsis thaliana)
Assay: Microscale thermophoresis
Type: binding
Settings: Kd, nucleotide binding to XLG2, MST, 25°C; Mg2+
experimentalEndpoint: pKd
Give only the number. pKd is defined as minus log10 of concentration in molar units.

Query block: I would be grateful if you could share the reported pKd for Nc1nc2c(ncn2[C@@H]2O[C@H](COP(=O)(O)OP(=O)(O)OP(O)(O)=S)[C@@H](O)[C@H]2O)c(=O)[nH]1 .
Result block: 5.63

====

Target: AtGPA1 (Arabidopsis thaliana, UniProt P18064)
Sequence (P18064 whole entry): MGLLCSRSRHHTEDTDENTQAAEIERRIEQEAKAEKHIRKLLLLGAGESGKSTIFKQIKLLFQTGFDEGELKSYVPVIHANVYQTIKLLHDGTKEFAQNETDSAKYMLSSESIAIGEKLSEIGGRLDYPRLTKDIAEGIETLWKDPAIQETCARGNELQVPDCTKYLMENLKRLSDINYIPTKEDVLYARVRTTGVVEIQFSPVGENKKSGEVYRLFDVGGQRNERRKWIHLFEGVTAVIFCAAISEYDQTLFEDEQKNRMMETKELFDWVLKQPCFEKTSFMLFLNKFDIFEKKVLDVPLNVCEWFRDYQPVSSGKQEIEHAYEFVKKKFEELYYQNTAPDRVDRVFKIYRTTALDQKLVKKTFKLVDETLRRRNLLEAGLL
Assay: Microscale thermophoresis
Assay type: binding
Details: Kd, nucleotide binding to AtGPA1, MST, 25°C, polyHis-tagged AtGPA1
experimentalEndpoint: pKd
Give only the number. pKd is defined as minus log10 of concentration in molar units.

Query block: I would be grateful if you could share the reported pKd for Nc1nc2c(ncn2[C@@H]2O[C@H](COP(=O)(O)OP(=O)(O)O)[C@@H](O)[C@H]2O)c(=O)[nH]1 [GDP, guanosine diphosphate] .
Result block: 4.55

The values you see were collected from paper PMC7308192.
